molecular target: Luciferin 4-monooxygenase (Photinus pyralis) (UniProt P08659); assay: qHTS Assay for Inhibitors of Firefly Luciferase; settings: purified firefly luciferase, luminescence, 8 min; series mostly up to 57.1 µM; further: nearly all actives have a fitted effect of over 40% in size
Sequence (P08659 whole entry, looked up): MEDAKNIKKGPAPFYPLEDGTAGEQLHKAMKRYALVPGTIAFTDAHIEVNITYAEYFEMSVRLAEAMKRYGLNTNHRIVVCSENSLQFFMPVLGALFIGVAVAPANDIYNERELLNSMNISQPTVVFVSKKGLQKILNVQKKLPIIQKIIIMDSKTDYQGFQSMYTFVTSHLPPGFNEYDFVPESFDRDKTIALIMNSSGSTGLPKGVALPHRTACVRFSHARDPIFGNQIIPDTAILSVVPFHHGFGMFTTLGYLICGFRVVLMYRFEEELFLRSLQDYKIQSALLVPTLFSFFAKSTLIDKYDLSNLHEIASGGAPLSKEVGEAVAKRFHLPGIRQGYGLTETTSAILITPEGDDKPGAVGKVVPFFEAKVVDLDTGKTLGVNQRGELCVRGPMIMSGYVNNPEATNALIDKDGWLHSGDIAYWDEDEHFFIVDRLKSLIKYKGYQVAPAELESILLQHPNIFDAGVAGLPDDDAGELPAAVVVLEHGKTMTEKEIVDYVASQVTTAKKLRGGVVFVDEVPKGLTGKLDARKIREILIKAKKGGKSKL
The campaign covered roughly 72,000 compounds. About 1,600 (2.2%) were called active. The call rests on the fitted dose curve; in most records, active means well fitted inhibition curve with a large enough effect; inconclusive means small, poorly fitted or top-dose-only effect; inactive means flat fitted curve, though single readings scatter. This is one part of a sample in which actives are shown more often than they occur.
// one of active, inactive, no free text

Examples with answers:
molecule	class-name
CCCCn1c(CN2CCN(CCO)CC2)nc2ccccc21	inactive
CCOc1ccc(NCCC(=O)c2ccc3c(c2)OCO3)cc1	inactive
CCOc1ccc(-c2nnn(CC(=O)N3CCN(c4ccc(F)cc4)CC3)n2)cc1OCC	inactive
CC(=O)OCC(=O)[C@@]1(O)CC[C@@H]2[C@H]3CCC4=CC(=O)C=C[C@]4(C)[C@]3(F)[C@@H](O)C[C@@]21C	inactive
O=C1CCCC2=C1C(c1cccs1)n1nc(SCc3ccccc3)nc1N2 (stereo not given)	inactive

Called result for COc1ccc(-c2nn(-c3ccccc3)cc2C(=O)Nc2nc(CC(C)=O)ns2)cc1 inactive

Similarly, O=C(c1cccc(C(=O)N2CCc3ccccc32)n1)N1CCc2ccccc21 ? inactive

Similarly, O=C(Nc1ccc2c(c1)OCCO2)C1CCCN(c2ncccn2)C1 (stereo not given) ? active

Similarly, CN(c1ccccc1)c1ccc(/C=c2\s/c(=C(/C#N)C(=O)C(C)(C)C)n(Cc3ccco3)c2=O)cc1 ? inactive

Similarly, COC(=O)COc1ccc2oc(=O)cc(C)c2c1 ? inactive

---

molecular target: Luciferin 4-monooxygenase (Photinus pyralis) (UniProt P08659); assay: qHTS Assay for Inhibitors of Firefly Luciferase; settings: purified firefly luciferase, luminescence, 8 min; series mostly up to 57.1 µM; further: nearly all actives have a fitted effect of over 40% in size; further: potency means the concentration at half of the fitted maximal effect
In all, about 72,000 compounds went through this assay and about 1,600 (2.2%) were called active. The list comes from a sample in which actives are over-represented; it also holds close analogues and randomly drawn compounds.
recorded-endpoint: Potency

Recorded Potency, per entry:
molecule	Potency
CSc1nnc2c(n1)OC(c1cn(C)c3ccccc13)N(C(C)=O)c1ccccc1-2 (stereo not given)	inactive
Cc1cc(C)c2c(c1)cc(C)c1nnc(SCC(=O)Nc3cc(C)on3)n12	inactive
O=C(c1ccc2c(c1)OCCO2)C1CCN(S(=O)(=O)c2cccc(F)c2)CC1	inactive
O=C(CS(=O)(=O)Cc1ccccc1)NCC1CCCO1 (stereo not given)	inactive
Fc1ccc2nc(N3CCCCC3)sc2c1	25.1 µM (active)

// lookup Potency for CC(=NCC1CCCO1)c1c(O)[nH]c(=O)[nH]c1=O (stereo not given) inactive

Similarly, COc1ccc(-n2ncc3c(N4CCCc5ccccc54)ncnc32)cc1 ? 12.6 µM (active)

---

target: Luciferin 4-monooxygenase (Photinus pyralis); experiment: qHTS Assay for Inhibitors of Firefly Luciferase; details: purified firefly luciferase, luminescence, 8 min; series mostly up to 57.1 µM; further: nearly all actives have a fitted effect of over 40% in size
In all, about 72,000 compounds went through this assay and about 1,600 (2.2%) were called active. The list comes from a sample in which actives are over-represented; it also holds close analogues and randomly drawn compounds.

molecule	outcome
CCOc1ccc(N=C2SC(C(=O)O)CC(=O)N2C)cc1 (stereo not drawn)	inactive
c1ccc(-n2ncc3c2ncn2c(C4CCCCC4)nnc32)cc1	inactive
CCOC(=O)N1CCC(NC(=O)c2cnn3ccccc23)CC1	inactive
